# target.or.system: Sortilin/Progranulin (Homo sapiens, UniProt P28799+Q99523)
# Sequence (Q99523 whole entry): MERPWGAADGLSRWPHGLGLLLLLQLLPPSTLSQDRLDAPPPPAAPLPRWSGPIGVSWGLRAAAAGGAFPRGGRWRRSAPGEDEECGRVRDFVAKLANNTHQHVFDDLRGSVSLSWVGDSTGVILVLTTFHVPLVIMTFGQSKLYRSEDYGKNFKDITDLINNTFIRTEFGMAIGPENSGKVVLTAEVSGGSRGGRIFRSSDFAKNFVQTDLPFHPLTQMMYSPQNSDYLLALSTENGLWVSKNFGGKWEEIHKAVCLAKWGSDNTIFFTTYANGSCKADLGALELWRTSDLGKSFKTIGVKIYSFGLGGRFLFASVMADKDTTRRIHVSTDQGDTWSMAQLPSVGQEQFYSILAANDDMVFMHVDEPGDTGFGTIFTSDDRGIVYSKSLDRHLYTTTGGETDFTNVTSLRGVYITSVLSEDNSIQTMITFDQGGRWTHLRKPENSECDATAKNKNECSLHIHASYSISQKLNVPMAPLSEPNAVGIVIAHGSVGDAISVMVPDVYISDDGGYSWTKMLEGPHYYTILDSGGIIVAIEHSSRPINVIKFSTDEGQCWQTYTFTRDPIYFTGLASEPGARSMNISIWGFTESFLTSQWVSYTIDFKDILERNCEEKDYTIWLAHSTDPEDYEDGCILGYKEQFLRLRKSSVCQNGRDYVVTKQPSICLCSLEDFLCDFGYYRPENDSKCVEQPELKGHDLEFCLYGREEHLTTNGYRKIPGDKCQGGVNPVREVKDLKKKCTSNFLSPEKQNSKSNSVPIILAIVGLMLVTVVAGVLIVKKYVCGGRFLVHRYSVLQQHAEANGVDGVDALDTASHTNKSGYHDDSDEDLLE
# Sequence (P28799 whole entry): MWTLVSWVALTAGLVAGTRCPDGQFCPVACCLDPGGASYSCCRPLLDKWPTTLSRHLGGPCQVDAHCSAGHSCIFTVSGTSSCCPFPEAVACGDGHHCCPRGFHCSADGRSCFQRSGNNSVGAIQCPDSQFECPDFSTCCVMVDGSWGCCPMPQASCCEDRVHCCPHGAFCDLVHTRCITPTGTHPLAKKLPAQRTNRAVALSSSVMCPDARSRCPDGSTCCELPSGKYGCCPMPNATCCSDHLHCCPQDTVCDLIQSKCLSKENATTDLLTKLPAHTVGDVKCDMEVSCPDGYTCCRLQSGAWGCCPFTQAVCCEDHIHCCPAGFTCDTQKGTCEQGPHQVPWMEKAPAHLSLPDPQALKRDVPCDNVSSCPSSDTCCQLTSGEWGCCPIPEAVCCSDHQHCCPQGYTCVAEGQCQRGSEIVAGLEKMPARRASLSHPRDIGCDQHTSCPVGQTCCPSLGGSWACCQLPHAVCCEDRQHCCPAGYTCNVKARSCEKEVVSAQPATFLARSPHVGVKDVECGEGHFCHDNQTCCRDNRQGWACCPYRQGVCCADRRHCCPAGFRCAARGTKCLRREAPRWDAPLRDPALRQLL
# procedure.text: Inhibition of SORT1 (unknown origin)-GRN (unknown origin) protein-protein interaction by HTRF assay
property.measured: log10 of IC50 (log10 of the value in µM)

> print(dat)
                               entry.smiles                          target.or.system  property.measured  reported.value
1          CC(C)C[C@H](NC(=O)C1CCCC1)C(=O)O  Sortilin/Progranulin (Homo sapiens, UniProt P28799+Q99523)      log10 of IC50            1.40
2        CC(C)(C)c1cc(C(=O)O)n(Cc2ccccc2)n1  Sortilin/Progranulin (Homo sapiens, UniProt P28799+Q99523)      log10 of IC50            0.30
3  O=C(N[C@@H](CC1CC1)C(=O)O)c1cc(Cl)cc(Cl)c1  Sortilin/Progranulin (Homo sapiens, UniProt P28799+Q99523)      log10 of IC50            1.03
4  CC(C)(C)OC[C@H](NC(=O)c1cc(Cl)cc(Cl)c1)C(=O)O  Sortilin/Progranulin (Homo sapiens, UniProt P28799+Q99523)      log10 of IC50            0.18
5       CC(C)C[C@H](NC(=O)c1cnn(C)c1)C(=O)O  Sortilin/Progranulin (Homo sapiens, UniProt P28799+Q99523)      log10 of IC50            0.72
6  CC(C)C[C@H](NC(=O)C(C)(C)Cc1ccc(Cl)cc1)C(=O)O  Sortilin/Progranulin (Homo sapiens, UniProt P28799+Q99523)      log10 of IC50            0.83
7  CC(C)C[C@H](NC(=O)c1cc(Cl)cc(Cl)c1)C(=O)O  Sortilin/Progranulin (Homo sapiens, UniProt P28799+Q99523)      log10 of IC50            0.43
8  CC(C)(C)CC[C@H](NC(=O)c1cc(Cl)c[nH]1)C(=O)O  Sortilin/Progranulin (Homo sapiens, UniProt P28799+Q99523)      log10 of IC50           -1.05
9    COc1cccc(C(=O)N[C@@H](CC(C)C)C(=O)O)c1  Sortilin/Progranulin (Homo sapiens, UniProt P28799+Q99523)      log10 of IC50            0.83

###

# procedure.text: Apparent permeability of the compound
# Assay type: ADME
# condition.parameters: not told
Below, each entry is listed with its recorded Papp.
property.measured: Papp

> print(dat)
                               entry.smiles  reported.value
1  CC(C)(C)CC[C@H](NC(=O)c1cc(Cl)cc(Cl)c1)C(=O)O   23 ×10⁻⁶ cm/s
2  CC(C)(C)CC[C@H](NC(=O)c1cc(Cl)c[nH]1)C(=O)O  4.8 ×10⁻⁶ cm/s
3  CC(C)(C)CC[C@H](NC(=O)c1ccc(Oc2ccccc2)nc1)C(=O)O    7 ×10⁻⁶ cm/s

###

Each entry below carries its reported pIC50.
# target.or.system: Sortilin/Progranulin (Homo sapiens, UniProt P28799+Q99523)
# procedure.text: Inhibition of SORT1 (unknown origin)-GRN (unknown origin) protein-protein interaction by HTRF assay
pIC50: −log10 of the molar value.
property.measured: pIC50

> print(dat)
                                    compound  property.measured  readout.relation  reported.value
 1  CC(C)C[C@H](NC(c1cc(Cl)cc(Cl)c1)C(F)(F)F)C(=O)O (stereo partly drawn)              pIC50                 =            4.97
 2       CC(C)(C)c1cc(C(=O)O)n(CCc2ccccc2)n1              pIC50                 =            5.28
 3       CC(C)(C)Cc1cc(C(=O)O)n(Cc2ccccc2)n1              pIC50                 =            5.18
 4          CC(C)c1cc(C(=O)O)n(CCc2ccccc2)n1              pIC50                 <            4.17
 5  CC(C)(C)c1cc(C(=O)O)n(Cc2ccc(Oc3ccccc3)nc2)n1              pIC50                 =            5.68
 6  CC(C)(C)CC(NC(=O)c1cc(Cl)cc(Cl)c1)c1nn[nH]n1 (racemic)              pIC50                 =            5.16
 7  CC(C)(C)C[C@H](NC(=O)c1ccc(Oc2ccccc2)nc1)C(=O)O              pIC50                 =            7.19
 8  CC(C)(C)c1cc(C(=O)O)n(Cc2cc(Cl)cc(Cl)c2)n1              pIC50                 =            5.68
 9                  Cn1nc(C(C)(C)C)cc1C(=O)O              pIC50                 =            5.08
10     CC(C)C[C@H](NC(=O)c1cccc(Cl)c1)C(=O)O              pIC50                 =            5.35
11   CC(C)C[C@H](NC(=O)c1cnc2ccccc2n1)C(=O)O              pIC50                 =            5.20
12  CC(C)(C)c1cc(C(=O)O)n(Cc2nnc(-c3ccccc3)o2)n1              pIC50                 =            6.31
13  O=C(N[C@@H](CC12CC(C1)C2)C(=O)O)c1cc(Cl)cc(Cl)c1              pIC50                 =            4.74
14  CC(C)(C)c1cc(C(=O)O)n(Cc2ccc(-n3cccn3)nc2)n1              pIC50                 =            5.52
15  C=C(C)C[C@H](NC(=O)c1cc(Cl)cc(Cl)c1)C(=O)O              pIC50                 =            4.77
16  CC(C)(C)CC[C@H](NC(=O)c1cc(Cl)cc(Cl)c1)C(=O)O              pIC50                 =            6.77
17        CC(C)(C)c1cc(C(=O)O)n(-c2ccccc2)n1              pIC50                 =            5.11
18  CC(C)C[C@H](NC(=O)c1ccc(Cl)c(Cl)c1)C(=O)O              pIC50                 =            5.37
19  O=C(N[C@@H](CC1CCCCC1)C(=O)O)c1cc(Cl)cc(Cl)c1              pIC50                 =            5.64
20  O=C(N[C@@H](Cc1ccccc1)C(=O)O)c1cc(Cl)cc(Cl)c1              pIC50                 <            4.17
21  CC(C)C[C@H](NC(=O)C1CN(Cc2cc(Cl)cc(Cl)c2)CCO1)C(=O)O (stereo partly drawn)              pIC50                 =            4.84
22  CC(C)(C)CC[C@H](NC(=O)c1ccc(Oc2ccccc2)nc1)C(=O)O              pIC50                 =            7.70
23  CC(C)(C)C[C@H](NC(=O)c1cc(Cl)cc(Cl)c1)C(=O)O              pIC50                 =            6.46

###

# procedure.text: Protein binding in rat plasma
# Assay type: ADME, cell-free
# condition.parameters: read-out: PPB (converted)
property.measured: fraction unbound

> print(dat)
                               entry.smiles  reported.value
1  CC(C)(C)CC[C@H](NC(=O)c1ccc(Oc2ccccc2)nc1)C(=O)O          0.0077
2  CC(C)(C)CC[C@H](NC(=O)c1cc(Cl)c[nH]1)C(=O)O          0.0216
3  CC(C)(C)CC[C@H](NC(=O)c1cc(Cl)cc(Cl)c1)C(=O)O          0.0028
